- MEASURED TARGET: Heat shock protein HSP90 (Homo sapiens, UniProt P07900+P08238)
- MEASUREMENT SETUP: dose 100.0 nM
- Description: Inhibition of Hsp90 (unknown origin) at 100 nM by TR-FRET assay relative to control
In this section, each of the molecules is paired with its reported inhibition.
# value in %; strip the unit string

Solved entries (count: 3):
# STRUCTURE SMILES STRING, MEASURED TARGET, inhibition [%]
data = [
    ("CC(C)c1cc(C(=O)N2CCc3c(sc4nc(-c5ccc(NC(=O)N6CCOCC6)cc5)nc(N5CCOCC5)c34)C2)c(O)cc1O", "Heat shock protein HSP90 (Homo sapiens, UniProt P07900+P08238)", 58.4),
    ("Cc1ccccc1NC(=O)Nc1ccc(-c2nc(N3CCOCC3)c3c4c(sc3n2)CN(C(=O)c2cc(C(C)C)c(O)cc2O)CC4)cc1", "Heat shock protein HSP90 (Homo sapiens, UniProt P07900+P08238)", 62.6),
    ("CC(C)c1cc(C(=O)N2CCc3c(sc4nc(N5CCOCC5)nc(N5CCN(C)CC5)c34)C2)c(O)cc1O", "Heat shock protein HSP90 (Homo sapiens, UniProt P07900+P08238)", 40.8),
]

Attention now turns to another entry.
inhibition recorded for this molecule, Cc1ccc(NC(=O)Nc2ccc(-c3nc(N4CCOCC4)c4c5c(sc4n3)CN(C(=O)c3cc(C(C)C)c(O)cc3O)CC5)cc2)cc1 , is 61.6
